Where these numbers come from: patent US20260347364A1

molecular target: KRAS G12V (Homo sapiens, UniProt P01116, G12V); construct: 4 nM KRAS; aa1-188 containing the G12V, G12C, G12A or G12S amino acid substitution; assay: HTRF nucleotide exchange assay, KRAS G12V; conditions: HTRF nucleotide exchange assay (NEA), class symbols
Sequence (P01116 1-188 isoform P01116-2 G12V): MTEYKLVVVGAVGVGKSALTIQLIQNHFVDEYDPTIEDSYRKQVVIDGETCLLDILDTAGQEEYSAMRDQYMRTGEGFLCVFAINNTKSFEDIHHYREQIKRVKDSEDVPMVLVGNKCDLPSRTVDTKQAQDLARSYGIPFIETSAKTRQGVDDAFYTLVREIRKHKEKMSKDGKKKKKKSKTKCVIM
pIC50: −log10 of the molar value.
Catalogue of pIC50 values

Known pIC50 results, listed for orientation:
compound | pIC50
CCc1c(F)ccc2cc(O)cc(-c3cc4nc(OC[C@@]56CCCN5C[C@H](F)C6)nc(N5CC6CCC5CN6)c4c4cn(C)nc34)c12 (stereo partly shown) [Example 14] | 7.00 to 8.00
CCc1c(F)ccc2cc(O)cc(-c3cc4nc(OC[C@@]56CCCN5C[C@H](F)C6)nc(N5CCCOCC5)c4c4cn(C)nc34)c12 [Example 1] | 7.00 to 8.00
CCc1c(F)ccc2cc(O)cc(-c3cc4nc(OC[C@@]56CCCN5C[C@H](F)C6)nc(N5CCCC(C)(O)C5)c4c4cn(C)nc34)c12 (mixture of isomers) [Example 7] | ≥ 8.00

Data request: Fill in reported pIC50 for this entry: CCc1c(F)ccc2cc(O)cc(-c3c(C)c4nc(OC[C@@]56CCCN5C[C@H](F)C6)nc(N5CCOCC(C)(O)C5)c4c4cn(C)nc34)c12 (mixture of isomers) [Example 105]
Data returned: ≥ 8.00
